Source: paper PMC9582641

biological target: human Survivin (hSurvivin) (human, UniProt O15392 1-142); experiment: ITC
Sequence (O15392 whole entry): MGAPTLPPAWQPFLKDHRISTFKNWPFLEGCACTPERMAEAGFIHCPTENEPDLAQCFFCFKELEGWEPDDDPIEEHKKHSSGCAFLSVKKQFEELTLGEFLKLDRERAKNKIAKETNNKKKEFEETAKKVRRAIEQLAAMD
Where no end group is shown, it is not given here. [ ]: non-standard residue; d: D form. Lys(Me3) = C[N+](C)(C)CCCC[C@H](N)C(=O)O; pT = C[C@@H](OP(=O)(O)O)[C@H](N)C(=O)O; Lys(Me2) = CN(C)CCCC[C@H](N)C(=O)O; Lys(Me) = CNCCCC[C@H](N)C(=O)O
Known stoichiometry N of a selection of binders
When you answer, write just the number.

* ART[Lys(Me3)]QTARKSTG (peptide, UniProt P68431 2-13, looked up) [histone H3 peptide H3K4me3(1-12)] | 0.83
* AR[pT][Lys(Me2)]QTARKSTG (peptide, UniProt P68431 2-13, looked up) [histone H3 peptide H3T3phK4me2(1-12)] | 0.873
* AR[pT][Lys(Me3)]QTARKSTG (peptide, UniProt P68431 2-13, looked up) [histone H3 peptide H3T3phK4me3(1-12)] | 1.21
* ART[Lys(Me2)]QTARKSTG (peptide, UniProt P68431 2-13, looked up) [histone H3 peptide H3K4me2(1-12)] | 0.899

Name the recorded stoichiometry N for AR[pT][Lys(Me)]QTARKSTG (peptide, UniProt P68431 2-13, looked up) [histone H3 peptide H3T3phK4me1(1-12)] .
1.03

GET /values?readout=stoichiometry N&item= AR[pT]K(Ac)QTARKSTG (peptide, UniProt P68431 2-13, looked up) [histone H3 peptide H3T3phK4ac(1-12)]
0.965

I have this binder here, ART[Lys(Me)]QTARKSTG (peptide, UniProt P68431 2-13, looked up) [histone H3 peptide H3K4me1(1-12)] , and I need its recorded stoichiometry N.
1.08
